assay-method-text: Water solubility in aqueous buffer
particulars: aqueous buffer 10 mM Tris-HCl, pH 7.4, 20° C.
Entries annotated with measured Solubility

Solved cases (2 shown):
CCOCCOc1ccc(CC(C(=O)O)N2CCN(CC(=O)[O-])CCN(C(COC)C(=O)[O-])CCN(CC(=O)[O-])CC2)cc1.[Gd+3] (centres unmarked); >0.103 mol/L
CCOCCOCCOc1ccc(C[C@H](C(=O)O)N2CCN(CC(=O)[O-])CCN(CC(=O)[O-])CCN(CC(=O)[O-])CC2)cc1.[Gd+3]; >0.075 mol/L

Could you tell me which Solubility is on file for CCCC(C(=O)[O-])N1CCN(CC(=O)[O-])CCN(C(Cc2ccc(OCC)cc2)C(=O)O)CCN(CC(=O)[O-])CC1.[Gd+3] (centres unmarked) [Example 29] ?
>0.305 mol/L

Which value of Solubility has been reported for CCOc1ccc(CCCC(C(=O)O)N2CCN(CC(=O)[O-])CCN(CC(=O)[O-])CCN(CC(=O)[O-])CC2)cc1.[Gd+3] (centres unmarked) in the records?
>0.194 mol/L

Which Solubility is reported for this compound? "CCOCCOCCOc1ccc(CCC[C@@H](C(=O)O)N2CCN(CC(=O)[O-])CCN(CC(=O)[O-])CCN(CC(=O)[O-])CC2)cc1.[Gd+3]"
>0.062 mol/L

Quick one: Solubility of CCOCCOCCOc1ccc(CC(C(=O)O)N2CCN(CC(=O)[O-])CCN(C(C)C(=O)[O-])CCN(CC(=O)[O-])CC2)cc1.[Gd+3] (single isomer, unassigned) [Example 6] ?
>0.217 mol/L

GET /values?readout=Solubility&item= CCOCCOCCOc1ccc(CC(C(=O)O)N2CCN(CC(=O)[O-])CCN(CC(=O)[O-])CCN(CC(=O)[O-])CC2)cn1.[Gd+3] (centres unmarked)
>0.416 mol/L

Which Solubility value belongs to CCOCCOCCOc1ccc(CC(C(=O)O)N2CCN(CC(=O)[O-])CCN(C(CO)C(=O)[O-])CCN(CC(=O)[O-])CC2)cc1.[Gd+3] (centres unmarked) ?
>0.013 mol/L

###

assay-method-text: Complex stability (transmetallation) against Zn2+ in phosphate buffer
particulars: 72 hours, 2.5 mM Zn^2+, 26 mM phosphate buffer, 37° C., pH 7.4
readout: Transmetallation stability (%)
Report only the number, with the unit % understood.

CCOCCOCCOc1ccc(C[C@H](C(=O)O)N2CCN(CC(=O)[O-])CCN(CC(=O)[O-])CCN(CC(=O)[O-])CC2)cc1.[Gd+3]; 100
CCOCCOCCOc1ccc(CC(C(=O)O)N2CCN(CC(=O)[O-])CCN(CC(=O)[O-])CCN(CC(=O)[O-])CC2)cn1.[Gd+3] (stereo not drawn); 101

Let us move to another entry and its Transmetallation stability.
Field request: Transmetallation stability | item: "CCCCOc1cccc(CCC[C@@H](C(=O)O)N2CCN([C@@H](CO)C(=O)[O-])CCN([C@@H](CO)C(=O)[O-])CCN([C@@H](CO)C(=O)[O-])CC2)c1.[Gd+3]"
101

###

assay-method-text: Relaxivity measurements at 1.41 T in water
Assay type: physicochemical
particulars: 37° C., normalized to Gd
Reported r1 water is given for each of the following compounds.
Write down the numeric answer in L/mmol/s and omit the unit.

Solved cases (5 shown):
CCOCCOCCOc1ccc(CC(C(=O)O)N2CCN(C(CCO)C(=O)[O-])CCN(C(CCO)C(=O)[O-])CCN(C(CCO)C(=O)[O-])CC2)cc1.[Gd+3] (stereo not drawn) [Example 37]; 6.4
CCCC(C(=O)[O-])N1CCN(CC(=O)[O-])CCN(C(Cc2ccc(OCC)cc2)C(=O)O)CCN(CC(=O)[O-])CC1.[Gd+3] (stereo not drawn) [Example 30]; 4.7
CCOCCOCCOCCOc1ccc(C[C@@H](C(=O)O)N2CCN(CC(=O)[O-])CCN(CC(=O)[O-])CCN(CC(=O)[O-])CC2)c(OCCOCCOCCOCC)c1.[Gd+3] [Example 40]; 5.4
CCOCCOCCOc1ccc(CC(C(=O)O)N2CCN(CC(=O)[O-])CCN(C(CO)C(=O)[O-])CCN(CC(=O)[O-])CC2)cc1.[Gd+3] (stereo not drawn) [Example 41]; 4.5
CCOCCOCCOc1ccc(CCC[C@@H](C(=O)O)N2CCN(C(CO)C(=O)[O-])CCN(C(CO)C(=O)[O-])CCN(C(CO)C(=O)[O-])CC2)cc1.[Gd+3] (mixture of isomers) [Example 21]; 5.4

Fill blank: measured r1 water of the compound CCOCCOCCOc1ccc(CC(C(=O)O)N2CCN(CC(=O)[O-])CCN(CC(=O)[O-])CCN(CC(=O)[O-])CC2)cc1.[Gd+3] (stereo not drawn) [Example 2] is ____.
4.4

Which r1 water reading was recorded for the compound CCOCCOCCOc1ccc(C[C@@H](C(=O)O)N2CCN(CC(=O)[O-])CCN(CC(=O)[O-])CCN(CC(=O)[O-])CC2)cc1.[Gd+3] [Example 3] ?
4.3
